Assayed system: Gastrin/cholecystokinin type B receptor (Rattus norvegicus) (UniProt P30553)
Sequence (P30553 whole entry, looked up): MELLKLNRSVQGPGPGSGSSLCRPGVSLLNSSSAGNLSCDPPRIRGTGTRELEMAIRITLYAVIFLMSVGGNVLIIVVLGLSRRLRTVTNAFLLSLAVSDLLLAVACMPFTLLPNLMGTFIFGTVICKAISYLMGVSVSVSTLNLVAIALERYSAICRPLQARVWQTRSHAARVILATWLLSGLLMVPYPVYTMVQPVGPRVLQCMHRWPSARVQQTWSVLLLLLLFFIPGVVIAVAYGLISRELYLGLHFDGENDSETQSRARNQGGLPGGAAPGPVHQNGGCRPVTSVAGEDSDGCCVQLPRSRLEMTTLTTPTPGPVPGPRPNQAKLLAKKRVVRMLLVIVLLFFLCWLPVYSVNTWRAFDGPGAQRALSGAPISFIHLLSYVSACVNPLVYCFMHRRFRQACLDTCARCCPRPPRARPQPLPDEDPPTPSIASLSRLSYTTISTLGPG
Test details: Ability to displace 1 nM [3H]pCCK-8 from rat Cholecystokinin type B receptor stably expressing in CHO cells
Non-standard residues stand in square brackets, D forms with d. Residues, ends and D or L forms follow the SMILES beside them. *: point of attachment. NMeNle = CCCC[C@H](NC)C(=O)O; X1 = CCCCCNC(=O)CC(=O)*; Boc = CC(C)(C)OC(=O)*
Readings of pKi for the listed compounds
Give only the number. pKi is defined as minus log10 of concentration in molar units.

| Compound | pKi |
| --- | --- |
| CCCCCNC(=O)CC(=O)N[C@@H](Cc1c[nH]c2ccccc12)C(=O)N(C)[C@@H](CCCC)C(=O)N[C@@H](CC(=O)O)C(=O)N[C@@H](Cc1ccccc1)C(N)=O (X1-W[NMeNle]DF-NH2) | 8.58 |

Next item in the queue.
Read off the recorded pKi for CCCC[C@@H](C(=O)N[C@@H](CC(=O)O)C(=O)N[C@@H](Cc1ccccc1)C(N)=O)N(C)C(=O)[C@H](Cc1c[nH]c2ccccc12)NC(=O)OC(C)(C)C (Boc-W[NMeNle]DF-NH2)
8.59
